system: U2OS; assay: Multiplex assay against U2OS; assay type: toxicity, cell-based; conditions: human, 48 h, 1 µM, compound concentration 1 uM, replicate 1
Record form. Attribute: Population Healthy Nuclei (%). Fill in for each entry.
Expressed in %, but write only the number.

The recorded Population Healthy Nuclei (%) for entry "O=c1nc2[nH]c3ccccc3nc-2c(=O)[nH]1" equals 71

The recorded Population Healthy Nuclei (%) for entry "COc1c(Nc2ccc(S(C)(=O)=O)nc2C)ncnc1OC1CCN(C(=O)OC(C)C)CC1" equals 72

The recorded Population Healthy Nuclei (%) for entry CCC(=O)OCC(=O)[C@@]1(OC(=O)CC)[C@@H](C)C[C@H]2[C@@H]3CCC4=CC(=O)C=C[C@]4(C)[C@@]3(Cl)[C@@H](O)C[C@@]21C [BECLOMETHASONE DIPROPIONATE] equals 68

The recorded Population Healthy Nuclei (%) for entry "COC(c1ccccc1)(c1ccccc1)[C@H](Oc1nc(C)cc(C)n1)C(=O)O" equals 70

The recorded Population Healthy Nuclei (%) for entry "Cc1cc(NC(=O)NCCN2CCC(O)(Cc3ccccc3)CC2)c2ccccc2n1" equals 68

The recorded Population Healthy Nuclei (%) for entry "CC(C)C[C@H](CO)Nc1nc(S[C@@H](C)c2ccccc2)nc2nc(N)sc12" equals 69

The recorded Population Healthy Nuclei (%) for entry "Cn1cc(C(=O)OCC2CCN(CCNS(C)(=O)=O)CC2)c2ccccc21" equals 69

The recorded Population Healthy Nuclei (%) for entry "COc1cc2nc(N3CCN(C(=O)COc4c(OC)cccc4C(C)C)CC3)nc(N)c2cc1OC.Cl.Cl" equals 70

The recorded Population Healthy Nuclei (%) for entry O=C(O)CCC/C=C\CC1C(O)CC(O)C1/C=C/C(O)COc1cccc(Cl)c1 (stereo not given) equals 70

The recorded Population Healthy Nuclei (%) for entry "CN1CCC(C(=O)c2cccc(NC(=O)c3c(F)cc(F)cc3F)n2)CC1" equals 70

The recorded Population Healthy Nuclei (%) for entry "CSc1nc(NC2CCCC2)c([N+](=O)[O-])c(NC2CCCC2)n1" equals 70

The recorded Population Healthy Nuclei (%) for entry "CCCCC[C@H](O)/C=C/[C@H]1[C@H](O)CC(=O)[C@@H]1CCCCCCC(=O)O" equals 68

The recorded Population Healthy Nuclei (%) for entry "Cc1cc(-c2ccc3c(c2)CC[C@H]3N2CC3(CCN(C(=O)Cc4cn5cc(C)sc5n4)CC3)C2)ncn1" equals 71

The recorded Population Healthy Nuclei (%) for entry "C[C@H](NC(=O)CNC(=O)c1cccc(Cl)c1)c1ccccc1" equals 71

The recorded Population Healthy Nuclei (%) for entry "CCc1nn2c(C)cc(C)nc2c1Cc1ccc(-c2nnc(C3CCNCC3)o2)cc1" equals 71

====

tested on: HEK-293T; assay: Multiplex assay against HEK293T; type: toxicity, cell-based; settings: human, 24 h, 1 µM, compound concentration 1 uM, replicate 1
Non-standard residues stand in square brackets, D forms with d. Residues, ends and D or L forms follow the SMILES beside them.
PARAMETER: Population Mitotic Cells (%)
Expressed in %, but write only the number.

Form field Population Mitotic Cells (%) for item CC(C)C[C@@H]1NC(=O)[C@@H](C(C)C)NC(=O)[C@@H]2CCCN2C(=O)[C@@H](CC(=O)O)NC(=O)[C@@H](Cc2c[nH]c3ccccc23)NC1=O [BQ-123] (cyclo(L[dW][dD]P[dV])) on HEK-293T: 73

Form field Population Mitotic Cells (%) for item "CC(F)(F)CN1CCOc2c(nn(-c3ccccc3Cl)c2-c2ccc(Cl)cc2)C1=O" on HEK-293T: 74

Form field Population Mitotic Cells (%) for item "COc1cc(C(=O)N2CC[C@@H](O)[C@@H](N)C2)cc2nc(-c3cc4ccccc4n3CC3CC3)n(C)c12.Cl" on HEK-293T: 57

Form field Population Mitotic Cells (%) for item "CN1CCN(c2ccc(Nc3c4ccccc4nc4ccccc34)cc2)CC1.Cl.Cl.O" on HEK-293T: 57

Form field Population Mitotic Cells (%) for item "Cc1sc2c(c1C)C(c1ccc(Cl)cc1)=N[C@H](CC(=O)OC(C)(C)C)c1nnc(C)n1-2" on HEK-293T: 68

Form field Population Mitotic Cells (%) for item COCCCN1CCC(NC(=O)c2cc(Cl)c(N)c3c2OCC3)CC1 [PRUCALOPRIDE] on HEK-293T: 79

Form field Population Mitotic Cells (%) for item CCn1c(-c2nc3cc(C(=O)N4CCCC(N)C4)ccc3n2C)cc2ccccc21.Cl (stereo not drawn) on HEK-293T: 64

Form field Population Mitotic Cells (%) for item "C[C@H](NC(=O)CNC(=O)c1cccc(Cl)c1)c1ccccc1" on HEK-293T: 76

Form field Population Mitotic Cells (%) for item "N[C@](CC1c2ccccc2Oc2ccccc21)(C(=O)O)[C@H]1C[C@@H]1C(=O)O" on HEK-293T: 78

Form field Population Mitotic Cells (%) for item COc1cc2nc(N3CCN(C(=O)c4ccco4)CC3)nc(N)c2cc1OC.Cl [PRAZOSIN HYDROCHLORIDE] on HEK-293T: 61

Form field Population Mitotic Cells (%) for item CN(C)C/C=C/C(=O)Nc1ccc(C(=O)N2CCCC(Nc3ncc(Cl)c(-c4c[nH]c5ccccc45)n3)C2)cc1 (stereo not drawn) on HEK-293T: 27

Form field Population Mitotic Cells (%) for item CN1C[C@H](C(=O)N[C@]2(C)O[C@@]3(O)[C@@H]4CCCN4C(=O)[C@H](Cc4ccccc4)N3C2=O)C[C@@H]2c3cccc4[nH]cc(c34)C[C@H]21.CS(=O)(=O)O [DIHYDROERGOTAMINE MESYLATE] on HEK-293T: 71

Form field Population Mitotic Cells (%) for item "OCCCNc1cc(-c2ccnc(Nc3cccc(Cl)c3)n2)ccn1" on HEK-293T: 8

Form field Population Mitotic Cells (%) for item CCC(=O)OCC(=O)[C@@]1(OC(=O)CC)[C@@H](C)C[C@H]2[C@@H]3CCC4=CC(=O)C=C[C@]4(C)[C@@]3(Cl)[C@@H](O)C[C@@]21C [BECLOMETHASONE DIPROPIONATE] on HEK-293T: 67

Form field Population Mitotic Cells (%) for item Cc1ccc(OCC(O)C(C)NC(C)C)c2c1CCC2.Cl (stereo not drawn) on HEK-293T: 64

Form field Population Mitotic Cells (%) for item "CCc1nn2c(C)cc(C)nc2c1Cc1ccc(-c2nnc(C3CCNCC3)o2)cc1" on HEK-293T: 55

Form field Population Mitotic Cells (%) for item "CN(C)C(=O)Cn1cc(-c2ccc(-c3nnc4ccccn34)cc2)cn1" on HEK-293T: 72

Form field Population Mitotic Cells (%) for item "Cc1cc(O)c(-c2ccc([C@@H](C)CN(C)C)cc2)c2c1[nH]c(=O)c1sccc12" on HEK-293T: 34

Form field Population Mitotic Cells (%) for item "CSc1nc(NC2CCCC2)c([N+](=O)[O-])c(NC2CCCC2)n1" on HEK-293T: 69

Form field Population Mitotic Cells (%) for item "Cc1nn(C)c2nc(NNC(=O)Nc3cc(Cl)nc(Cl)c3)cc(C(C)C)c12" on HEK-293T: 68

Form field Population Mitotic Cells (%) for item "Cc1cc(-c2ccc3c(c2)CC[C@H]3N2CC3(CCN(C(=O)Cc4cn5cc(C)sc5n4)CC3)C2)ncn1" on HEK-293T: 78

Form field Population Mitotic Cells (%) for item "Cc1cc(NC(=O)NCCN2CCC(O)(Cc3ccccc3)CC2)c2ccccc2n1" on HEK-293T: 82

Form field Population Mitotic Cells (%) for item "O=C(Nc1cc(-c2ccccc2)nn1-c1ccccc1F)c1ccc([N+](=O)[O-])cc1" on HEK-293T: 66

Form field Population Mitotic Cells (%) for item "S=C(NCCCc1c[nH]cn1)NCCCN(Cc1ccc(Cl)c(Cl)c1)c1ccc(Br)cn1" on HEK-293T: 60

Form field Population Mitotic Cells (%) for item "CC(C)(C)c1ccc(CSc2cnn(C(C)(C)C)c(=O)c2Cl)cc1" on HEK-293T: 66

Form field Population Mitotic Cells (%) for item "O=c1nc2[nH]c3ccccc3nc-2c(=O)[nH]1" on HEK-293T: 77

Form field Population Mitotic Cells (%) for item "COCCn1c(C)c(C)s/c1=N\C(=O)C1C(C)(C)C1(C)C" on HEK-293T: 80

Form field Population Mitotic Cells (%) for item CN1CCN2c3ccccc3Cc3ccccc3C2C1.Cl (stereo not drawn) [MIANSERIN HYDROCHLORIDE] on HEK-293T: 77

Source: ChEMBL document CHEMBL5058577
